target: UniProtKB Q9NQS5; experiment: Detection of cytoplasmic calcium ion concentration with Fluo-4 fluorescent dye tracer assay (GPR84 agonist activity); type: cell-based; set-up: expressed in transfected cells; host or cells: HEK293; details: HEK293 cell line transfected with GPR84 and G16; Fluo-4 calcium fluorescence
Sequence (Q9NQS5 whole entry): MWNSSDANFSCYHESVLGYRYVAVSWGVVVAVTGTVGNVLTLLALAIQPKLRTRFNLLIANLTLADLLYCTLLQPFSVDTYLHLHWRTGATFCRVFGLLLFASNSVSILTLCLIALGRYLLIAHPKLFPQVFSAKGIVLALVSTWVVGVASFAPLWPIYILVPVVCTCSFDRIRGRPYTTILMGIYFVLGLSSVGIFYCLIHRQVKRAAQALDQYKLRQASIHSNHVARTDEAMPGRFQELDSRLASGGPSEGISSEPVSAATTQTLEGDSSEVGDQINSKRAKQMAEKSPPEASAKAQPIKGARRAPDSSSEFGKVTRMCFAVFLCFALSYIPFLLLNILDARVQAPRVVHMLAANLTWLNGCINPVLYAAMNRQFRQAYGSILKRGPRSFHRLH
measured-parameter: EC50 (nM)

# compound, EC50 [nM]
records = [
    ("CC/C=C\\CCSc1nc(O)cc(O)n1", 924),
]

(a) CCCCCCCCCc1nc(O)cc(O)n1
(b) O=c1cc(O)nc(SCCc2ccc(F)cc2)[nH]1
## Task Of the two listed items, a and b , which carries the larger EC50 figure? Selection: enter the item's label.
## Result b
(b: 2940 nM, a: 48.7 nM)
